experiment: Intrinsic clearance in mouse liver microsomes at 1 uM after 45 mins in presence of NADPH by LC-MS/MS analysis; type: ADME; conditions: read-out: CLH
readout-name: microsomal CLint at 1 µM
A bare number is not enough; add the unit after it.

Value of measured microsomal CLint at 1 µM for the entry Cc1cc(C)c(CN2CCc3c(Cl)cc(-c4c(C)noc4C)c(Cl)c3C2=O)c(=O)[nH]1 : 531 µL/min/mg

Value of measured microsomal CLint at 1 µM for the entry Cc1cc(C)c(CN2CCc3ccc(O[C@@H]4CCOC4)c(Cl)c3C2=O)c(=O)[nH]1 : 31 µL/min/mg

Value of measured microsomal CLint at 1 µM for the entry Cc1cc(C)c(CN2CCc3c(Cl)cc(O[C@@H]4CCOC4)c(Cl)c3C2=O)c(=O)[nH]1 : 163 µL/min/mg

###

molecular target: Histone-lysine N-methyltransferase EZH2 (Homo sapiens, UniProt O75530+Q09028+Q15022+Q15910, Y641N); test: Inhibition of EZH2 Y641N mutant (unknown origin) expressed in baculovirus infected SF9 cells co-expressing SUZ12/EED/RbAp48 complex using HeLa cells derived oligonucleosomes as substrate after 60 mins in presence of [3H] SAM by scintillation counting
Sequence (Q15910 whole entry Y641N, one chain of several): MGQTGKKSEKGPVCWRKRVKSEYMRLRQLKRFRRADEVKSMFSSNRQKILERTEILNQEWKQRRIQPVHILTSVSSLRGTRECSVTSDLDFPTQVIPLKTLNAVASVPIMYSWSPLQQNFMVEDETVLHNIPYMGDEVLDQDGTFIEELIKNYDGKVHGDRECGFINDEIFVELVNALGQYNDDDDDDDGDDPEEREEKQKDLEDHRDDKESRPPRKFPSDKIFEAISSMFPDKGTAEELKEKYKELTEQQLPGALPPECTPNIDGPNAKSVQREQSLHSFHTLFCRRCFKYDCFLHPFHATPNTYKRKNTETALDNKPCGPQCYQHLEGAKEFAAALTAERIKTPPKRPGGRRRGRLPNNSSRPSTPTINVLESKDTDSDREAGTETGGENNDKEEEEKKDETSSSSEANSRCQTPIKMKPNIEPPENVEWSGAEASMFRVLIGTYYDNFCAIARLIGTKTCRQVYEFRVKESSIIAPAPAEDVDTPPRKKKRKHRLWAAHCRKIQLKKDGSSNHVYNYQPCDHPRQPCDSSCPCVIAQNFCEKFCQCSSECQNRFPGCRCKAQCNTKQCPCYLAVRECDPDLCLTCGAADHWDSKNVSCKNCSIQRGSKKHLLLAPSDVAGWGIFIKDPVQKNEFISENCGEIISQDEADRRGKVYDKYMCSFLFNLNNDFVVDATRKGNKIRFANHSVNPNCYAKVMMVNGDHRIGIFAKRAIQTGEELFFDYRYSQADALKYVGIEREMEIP
readout-name: pKi
// field semantics: pKi = negative decimal log of concentration (mol/L)

Value of measured pKi for the entry Cc1cc(C)c(CN2CCc3ccc(-c4c(C)noc4C)c(Cl)c3C2=O)c(=O)[nH]1 : 8.20

###

test: Intrinsic clearance in human liver microsomes at 1 uM after 45 mins in presence of NADPH by LC-MS/MS analysis; type: ADME; settings: read-out: CLH
What microsomal CLint at 1 µM was measured for each of the following?
Quick reminder: number only, in µL/min/mg, skip the unit.

Value of measured microsomal CLint at 1 µM for the entry Cc1cc(C)c(CN2CCc3ccc(O[C@@H]4CCOC4)c(Cl)c3C2=O)c(=O)[nH]1 : 21

Value of measured microsomal CLint at 1 µM for the entry Cc1cc(C)c(CN2CCc3ccc(OC(C)C)cc3C2=O)c(=O)[nH]1 : 19

Value of measured microsomal CLint at 1 µM for the entry Cc1cc(C)c(CN2CCc3c(Cl)cc(O[C@@H]4CCOC4)c(Cl)c3C2=O)c(=O)[nH]1 : 21

Value of measured microsomal CLint at 1 µM for the entry COc1ccc2c(c1Cl)C(=O)N(Cc1c(C)cc(C)[nH]c1=O)CC2 : 35

Value of measured microsomal CLint at 1 µM for the entry Cc1cc(C)c(CN2CCc3ccc(OC(C)C)c(C)c3C2=O)c(=O)[nH]1 : 102

Value of measured microsomal CLint at 1 µM for the entry CCOc1ccc2c(c1Cl)C(=O)N(Cc1c(C)cc(C)[nH]c1=O)CC2 : 37

Value of measured microsomal CLint at 1 µM for the entry Cc1cc(C)c(CN2CCc3c(Cl)cc(-c4c(C)noc4C)c(Cl)c3C2=O)c(=O)[nH]1 : 107

Value of measured microsomal CLint at 1 µM for the entry COc1ccc2c(c1Cl)C(=O)N(Cc1c(C)cc(C)[nH]c1=O)CCC2 : 82

Value of measured microsomal CLint at 1 µM for the entry COc1ccc2c(c1Cl)C(=O)N(Cc1c(C)cc(C)[nH]c1=O)CCO2 : 40

Value of measured microsomal CLint at 1 µM for the entry COc1cccc(C(=O)NCc2c(C)cc(C)[nH]c2=O)c1Cl : 8

###

experiment: Lipophilicity, log D of the compound at pH 7.4; conditions: buffer
readout-name: logD
// return just the number, without any unit appended

Value of measured logD for the entry Cc1cc(C)c(CN2CCc3c(C)cc(O[C@@H]4CCOC4)c(Cl)c3C2=O)c(=O)[nH]1 : 2.1

Value of measured logD for the entry Cc1cc(C)c(CN2CCc3c(Cl)cc(-c4c(C)noc4C)c(Cl)c3C2=O)c(=O)[nH]1 : 3.1

Value of measured logD for the entry Cc1cc(C)c(CN2CCc3ccc(O[C@@H]4CCOC4)c(Cl)c3C2=O)c(=O)[nH]1 : 1.5

Value of measured logD for the entry Cc1cc(C)c(CN2CCc3ccc(OC(C)C)c(Cl)c3C2=O)c(=O)[nH]1 : 2.7

Value of measured logD for the entry Cc1cc(C)c(CN2CCc3c(Cl)cc(-c4cn[nH]c4C)c(Cl)c3C2=O)c(=O)[nH]1 : 3.1

Value of measured logD for the entry Cc1cc(C)c(CN2CCc3c(Cl)cc(-c4c(C)n[nH]c4C)c(Cl)c3C2=O)c(=O)[nH]1 : 3.4

Value of measured logD for the entry COc1cccc(C(=O)NCc2c(C)cc(C)[nH]c2=O)c1Cl : 1.2

Value of measured logD for the entry Cc1cc(C)c(CN2CCc3c(Cl)cc(-c4c(C)nn(C)c4C)c(Cl)c3C2=O)c(=O)[nH]1 : 3.4

Value of measured logD for the entry COc1cccc(C(=O)NCc2c(C)cc(C)[nH]c2=O)c1 : 1.7

Value of measured logD for the entry Cc1cc(C)c(CN2CCc3ccc(OC(C)C)cc3C2=O)c(=O)[nH]1 : 2.5

Value of measured logD for the entry COc1ccc2c(c1Cl)C(=O)N(Cc1c(C)cc(C)[nH]c1=O)CCC2 : 1.7

Value of measured logD for the entry Cc1cc(C)c(CN2CCc3ccc(-c4c(C)noc4C)c(Cl)c3C2=O)c(=O)[nH]1 : 2.6

Value of measured logD for the entry COc1cccc(C(=O)NCc2c(C)cc(C)[nH]c2=O)c1O : 1.9

Value of measured logD for the entry Cc1cc(C)c(CNC(=O)c2cccc(OC(C)C)c2Cl)c(=O)[nH]1 : 2

Value of measured logD for the entry COc1ccc2c(c1Cl)C(=O)N(Cc1c(C)cc(C)[nH]c1=O)CC2 : 1.8

Value of measured logD for the entry COc1cccc(C(=O)NCc2c(C)cc(C)[nH]c2=O)c1C : 1.5

Value of measured logD for the entry Cc1cc(C)c(CN2CCc3c(Cl)cc(-c4cn[nH]c4)c(Cl)c3C2=O)c(=O)[nH]1 : 3

Value of measured logD for the entry Cc1cc(C)c(CNC(=O)c2cccc(OC(C)C)c2C)c(=O)[nH]1 : 2.1

Value of measured logD for the entry COc1cccc(C(=O)NCc2c(C)cc(C)[nH]c2=O)c1OC : 1.7

Value of measured logD for the entry CCOc1ccc2c(c1Cl)C(=O)N(Cc1c(C)cc(C)[nH]c1=O)CC2 : 2.2

###

test system: MDR1; test: in vitro; conditions: dog, MDCK-MDR1
Description: Efflux ratio of permeability from basolateral to apical side over apical to basolateral side in MDCK cells expressing MDR1
readout-name: efflux ratio
// return just the number, without any unit appended

Value of measured efflux ratio for the entry Cc1cc(C)c(CN2CCc3c(Cl)cc(-c4c(C)noc4C)c(Cl)c3C2=O)c(=O)[nH]1 : 4.6

Value of measured efflux ratio for the entry Cc1cc(C)c(CN2CCc3c(Cl)cc(O[C@@H]4CCOC4)c(Cl)c3C2=O)c(=O)[nH]1 : 4.7

###

assay: Permeability in RRCK cells; format: ADME, cell-based, Canis lupus familiaris, MDCKII-LE; conditions: dog, MDCK; read-out: permeability
readout-name: Papp (×10⁻⁶ cm/s)
Quick reminder: number only, in ×10⁻⁶ cm/s, skip the unit.

Value of measured Papp for the entry Cc1cc(C)c(CN2CCc3ccc(O[C@@H]4CCOC4)c(Cl)c3C2=O)c(=O)[nH]1 : 12.3

Value of measured Papp for the entry Cc1cc(C)c(CN2CCc3c(Cl)cc(-c4c(C)noc4C)c(Cl)c3C2=O)c(=O)[nH]1 : 15.7

Value of measured Papp for the entry Cc1cc(C)c(CN2CCc3ccc(OC(C)C)c(Cl)c3C2=O)c(=O)[nH]1 : 19.6

Value of measured Papp for the entry Cc1cc(C)c(CN2CCc3c(Cl)cc(O[C@@H]4CCOC4)c(Cl)c3C2=O)c(=O)[nH]1 : 14.7

###

What IC50 was measured for each of the following?
target: UniProtKB Q15910; assay: Inhibition of EZH2 in human KARPAS422 cells assessed as reduction in H3K27Me3 levels after 72 hrs by ELISA
Quick reminder: number only, in nM, skip the unit.

Value of measured IC50 for the entry Cc1cc(C)c(CN2CCc3c(Cl)cc(-c4cn[nH]c4C)c(Cl)c3C2=O)c(=O)[nH]1 : 873

Value of measured IC50 for the entry Cc1cc(C)c(CN2CCc3c(F)cc(O[C@@H]4CCOC4)c(Cl)c3C2=O)c(=O)[nH]1 : 994

Value of measured IC50 for the entry Cc1cc(C)c(CN2CCc3ccc(O[C@@H]4CCOC4)c(Cl)c3C2=O)c(=O)[nH]1 : 796

Value of measured IC50 for the entry Cc1cc(C)c(CN2CCc3ccc(OC(C)C)c(Cl)c3C2=O)c(=O)[nH]1 : 1190

// data source = ChEMBL document CHEMBL3856228
